- TARGET UNDER TEST: dAsCas12a S542R (Acidaminococcus sp., UniProt U2UMQ6 1-1307, S542R;D908A;E993A;D1235A)
- ASSAY OVERVIEW: Spec-seq (native PAGE EMSA with sequencing of bound and unbound); 25 mM Tris-HCl pH 7.4, 150 mM KCl, 5 mM MgCl2, 10% glycerol, 1 mM DTT, 40 ng/uL salmon sperm DNA; 400 nM Cas12a, 480 nM crRNA, 50 nM library, 37 C 1 h; native PAGE at room temperature; high values mean tight binding;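 note: relative affinity from the bound to unbound sequence frequency ratio in Spec-seq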
- SETUP CONDITIONS: protein: recombinant
Each entry below carries its reported binding signal.
Field: numeric (lnKA). Do not append units.

Reference set (9 entries):
TGGC (dsDNA) DNA 1: GCTATCTAGTGCTCAGTACGCACTGTGGCAGGAAACTTCTGGCAGGACCAGGTCATGAGATCGGAAGAGCACACGTCTGAACTCCAGTCA DNA 2: TGACTGGAGTTCAGACGTGTGCTCTTCCGATCTCATGACCTGGTCCTGCCAGAAGTTTCCTGCCACAGTGCGTACTGAGCACTAGATAGC RNA: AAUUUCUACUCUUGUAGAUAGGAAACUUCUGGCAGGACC    -8.19
GGCT (dsDNA) DNA 1: GCTATCTAGTGCTCAGTACGCACTGGGCTAGGAAACTTCTGGCAGGACCAGGTCATGAGATCGGAAGAGCACACGTCTGAACTCCAGTCA DNA 2: TGACTGGAGTTCAGACGTGTGCTCTTCCGATCTCATGACCTGGTCCTGCCAGAAGTTTCCTAGCCCAGTGCGTACTGAGCACTAGATAGC RNA: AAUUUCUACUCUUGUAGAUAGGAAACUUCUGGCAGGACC    -8.78
GCGA (dsDNA) DNA 1: GCTATCTAGTGCTCAGTACGCACTGGCGAAGGAAACTTCTGGCAGGACCAGGTCATGAGATCGGAAGAGCACACGTCTGAACTCCAGTCA DNA 2: TGACTGGAGTTCAGACGTGTGCTCTTCCGATCTCATGACCTGGTCCTGCCAGAAGTTTCCTTCGCCAGTGCGTACTGAGCACTAGATAGC RNA: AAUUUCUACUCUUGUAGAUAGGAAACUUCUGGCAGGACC    -8.63
CTGC (dsDNA) DNA 1: GCTATCTAGTGCTCAGTACGCACTGCTGCAGGAAACTTCTGGCAGGACCAGGTCATGAGATCGGAAGAGCACACGTCTGAACTCCAGTCA DNA 2: TGACTGGAGTTCAGACGTGTGCTCTTCCGATCTCATGACCTGGTCCTGCCAGAAGTTTCCTGCAGCAGTGCGTACTGAGCACTAGATAGC RNA: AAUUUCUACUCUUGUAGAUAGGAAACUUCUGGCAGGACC    -8.71
GAGC (dsDNA) DNA 1: GCTATCTAGTGCTCAGTACGCACTGGAGCAGGAAACTTCTGGCAGGACCAGGTCATGAGATCGGAAGAGCACACGTCTGAACTCCAGTCA DNA 2: TGACTGGAGTTCAGACGTGTGCTCTTCCGATCTCATGACCTGGTCCTGCCAGAAGTTTCCTGCTCCAGTGCGTACTGAGCACTAGATAGC RNA: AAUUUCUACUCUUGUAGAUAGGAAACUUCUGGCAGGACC    -8.89
ATAA (dsDNA) DNA 1: GCTATCTAGTGCTCAGTACGCACTGATAAAGGAAACTTCTGGCAGGACCAGGTCATGAGATCGGAAGAGCACACGTCTGAACTCCAGTCA DNA 2: TGACTGGAGTTCAGACGTGTGCTCTTCCGATCTCATGACCTGGTCCTGCCAGAAGTTTCCTTTATCAGTGCGTACTGAGCACTAGATAGC RNA: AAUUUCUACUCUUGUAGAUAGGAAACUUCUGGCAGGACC    -8.17
ACTT (dsDNA) DNA 1: GCTATCTAGTGCTCAGTACGCACTGACTTAGGAAACTTCTGGCAGGACCAGGTCATGAGATCGGAAGAGCACACGTCTGAACTCCAGTCA DNA 2: TGACTGGAGTTCAGACGTGTGCTCTTCCGATCTCATGACCTGGTCCTGCCAGAAGTTTCCTAAGTCAGTGCGTACTGAGCACTAGATAGC RNA: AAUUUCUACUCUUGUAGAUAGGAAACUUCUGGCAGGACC    -7.91
GCCG (dsDNA) DNA 1: GCTATCTAGTGCTCAGTACGCACTGGCCGAGGAAACTTCTGGCAGGACCAGGTCATGAGATCGGAAGAGCACACGTCTGAACTCCAGTCA DNA 2: TGACTGGAGTTCAGACGTGTGCTCTTCCGATCTCATGACCTGGTCCTGCCAGAAGTTTCCTCGGCCAGTGCGTACTGAGCACTAGATAGC RNA: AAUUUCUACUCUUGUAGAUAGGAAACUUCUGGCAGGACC    -6.59
GGTT (dsDNA) DNA 1: GCTATCTAGTGCTCAGTACGCACTGGGTTAGGAAACTTCTGGCAGGACCAGGTCATGAGATCGGAAGAGCACACGTCTGAACTCCAGTCA DNA 2: TGACTGGAGTTCAGACGTGTGCTCTTCCGATCTCATGACCTGGTCCTGCCAGAAGTTTCCTAACCCAGTGCGTACTGAGCACTAGATAGC RNA: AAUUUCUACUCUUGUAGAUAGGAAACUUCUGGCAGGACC    -8.19

Determine from records and report binding signal for CCCT (dsDNA) DNA 1: GCTATCTAGTGCTCAGTACGCACTGCCCTAGGAAACTTCTGGCAGGACCAGGTCATGAGATCGGAAGAGCACACGTCTGAACTCCAGTCA DNA 2: TGACTGGAGTTCAGACGTGTGCTCTTCCGATCTCATGACCTGGTCCTGCCAGAAGTTTCCTAGGGCAGTGCGTACTGAGCACTAGATAGC RNA: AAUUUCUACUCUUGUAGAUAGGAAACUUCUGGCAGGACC
-7.57
